# System: OVCAR-5
# test_description: NCI tumour cell line growth inhibition, 48 h
Activity calls are given as the source filed them. Cut-off read from the data, not from the text of the source: active = GI50 up to about 1.1 µM and inactive = higher.
endpoint_label: GI50

Below, 3 molecules whose answers are already recorded.
COC(=O)c1cc(C(=O)OC)cc(-c2ccc3c(c2)-c2nc4c(c(-c5ccc(OC)cc5)c2CC3)CCc2ccc(-c3cc(C(=O)OC)cc(C(=O)OC)c3)cc2-4)c1 :: 16 µM (inactive)
CCCCN[C@H]1C2C3CC4C5CC(C42)C1(C)C53 (stereo partly specified) :: > 100 µM (inactive)
CC(=O)C(C)CCOC1(C)OCCC1C (stereo unspecified) :: > 100 µM (inactive)

Quick one: GI50 of O=P(O)(Cc1ccccc1)OCC1(O)OCC(O)C(O)C1O (stereo unspecified) ?
> 10 µM (inactive)

Quick one: GI50 of CC(C)(C)c1cc(C2=NNC(c3ccccc3)C2)cc(C(C)(C)C)c1O (stereo unspecified) ?
21.1 µM (inactive)

Quick one: GI50 of NC(=S)N/N=C(\C(=O)Nc1cccc([N+](=O)[O-])c1)c1nc2ccc([N+](=O)[O-])cc2nc1O ?
> 100 µM (inactive)

----------
Measured GI50, listed per entry for reference.
# Tested on: T47D
# test_description: NCI tumour cell line growth inhibition, 48 h
Activity calls are given as the source filed them. Cut-off read from the data, not from the text of the source: active = GI50 up to about 1.1 µM and inactive = higher.

Below, 3 molecules whose answers are already recorded.
Cc1ccc(S(=O)(=O)n2c3ccc(Br)cc3c3nc4ccccc4nc32)cc1 :: > 100 µM (inactive)
CCCC[N+](CCCC)(CCCC)CCCC.O=S(=O)([O-])ON=C1c2ccccc2-c2ccccc21 :: > 100 µM (inactive)
O=C(Nc1nc2ncn(CCOC(=O)c3ccccc3)c2c(=O)[nH]1)c1ccccc1 :: 28.9 µM (inactive)

// next entry
Quick one: GI50 of COC(=O)C1=C(OC(=O)/C=C/c2ccc(Cl)cc2)C(C(=O)OC)[C@@]2(O)[C@@H](C(=O)OC)[C@H](C)C[C@@H]1[C@@H]2C(=O)OC (some centres undefined) ?
26.1 µM (inactive)

----------
Measured GI50, listed per entry for reference.
# Test system: M19-MEL
# test_description: NCI tumour cell line growth inhibition, 48 h
Calls of active or inactive are those of the source. No stated cut-off is given here; in the data, active = GI50 up to about 1.1 µM and inactive = higher.

N#C/C(=C\c1c[nH]c2ccccc12)C(=O)c1ccc(O)c(O)c1 :: 83.2 µM (inactive)
CCCCN[C@H]1C2C3CC4C5CC(C42)C1(C)C53 (stereo partly specified) :: > 100 µM (inactive)
CC(C)N1C(C)[C@@H](c2ccccc2)O[P@]1(=O)CC1=CCCCC1 (stereo partly specified) :: > 100 µM (inactive)
COc1ccc(C2=C(Cl)c3cc(OC)c(OC)cc3C2OC)cc1OC (stereo unspecified) :: > 100 µM (inactive)
CC(=O)N1C/C(=C\c2ccc(N(C)C)cc2)C(=O)/C(=C/c2ccc(N(C)C)cc2)C1 :: 33.6 µM (inactive)
CC(=O)C(C(=O)C(=O)Nc1cc(Cl)c(Cl)cc1Cl)c1csc(N)n1 (stereo unspecified) :: > 100 µM (inactive)

Quick one: GI50 of Cc1cc2c(c(C(=O)O)c1C)-c1cccc(Cl)c1C2=O ?
> 100 µM (inactive)

Quick one: GI50 of CCOC(=O)C(=O)Nc1c(C)cccc1C(C)C ?
> 100 µM (inactive)

Quick one: GI50 of CSc1nc(-c2ccccc2)nc(N2CCOCC2)[s+]1 ?
> 100 µM (inactive)

Quick one: GI50 of Cc1cc(C)c(N)c(C)c1N ?
> 100 µM (inactive)

Quick one: GI50 of COc1cc(C2C(C(=O)O)=C(CO)Oc3cc4c(cc32)OCO4)cc(OC)c1OC (stereo unspecified) ?
> 100 µM (inactive)

----------
# Tested on: HOP-18
# test_description: NCI tumour cell line growth inhibition, 48 h
Activity calls are given as the source filed them. Cut-off read from the data, not from the text of the source: active = GI50 up to about 1.1 µM and inactive = higher.
Measured GI50, listed per entry for reference.

O=C1NC(=S)NC(=O)C1=Cc1cc2c(cc1[N+](=O)[O-])OCO2 :: > 100 µM (inactive)
N#C/C(=C\c1cc2ccccc2c2ccccc12)c1ccccc1 :: 18.7 µM (inactive)
O=C(/C(=C\c1ccccc1)CN1CCOCC1)c1ccc(Br)cc1 :: 1.81 µM (inactive)
CC(C)(C)c1cc(Cc2ccc([N+](C)(C)C)cc2)c(O)c(C(C)(C)C)c1 :: 20.1 µM (inactive)

Quick one: GI50 of NC(=S)N/N=C(\C(=O)Nc1cccc([N+](=O)[O-])c1)c1nc2ccc([N+](=O)[O-])cc2nc1O ?
15 µM (inactive)

Quick one: GI50 of COC1=C(Br)C(=O)c2nc(C)ccc2C1=O ?
17.1 µM (inactive)

----------
# Test system: NCI-H23
# test_description: NCI tumour cell line growth inhibition, 48 h
Calls of active or inactive are those of the source. Cut-off read from the data, not from the text of the source: active = GI50 up to about 1.1 µM and inactive = higher.
Measured GI50, listed per entry for reference.

Quick one: GI50 of CC1=CC(=O)/C(=C/Nc2nc(-c3ccc([N+](=O)[O-])cc3)cs2)C(=O)O1 ?
> 100 µM (inactive)

----------
Measured GI50, listed per entry for reference.
# Tested on: A549
# test_description: NCI tumour cell line growth inhibition, 48 h
The source made the active and inactive calls. No stated cut-off is given here; in the data, active = GI50 up to about 1.1 µM and inactive = higher.

Cn1c2ccccc2c2[nH]c3ccccc3c(=O)c21 :: > 100 µM (inactive)
CC(C)[C@H](NC(=O)OCc1ccccc1)C(=O)N[C@H](/C=C/C(=O)OC(C)(C)C)CO :: > 100 µM (inactive)
C[N+](C)(C)CCOP(=O)(O)OP(=O)([O-])OCC1CCC(n2ccc(N)nc2=O)O1 (centres undefined) :: > 100 µM (inactive)
O=C(O)Cc1c[nH]c2ccc(F)cc12 :: > 100 µM (inactive)
CSCCCN(CCCSC)CCCSC :: > 100 µM (inactive)

Quick one: GI50 of COC1=C(Br)C(=O)c2nc(C)ccc2C1=O ?
20.3 µM (inactive)

----------
# System: SK-MEL-2
# test_description: NCI tumour cell line growth inhibition, 48 h
Active and inactive are the calls of the source. No stated cut-off is given here; in the data, active = GI50 up to about 1.1 µM and inactive = higher.
Measured GI50, listed per entry for reference.

Cc1nn(-c2ccccc2)c2c1C(c1cc3ccccc3nc1Cl)NC(=S)N2 (centres undefined) :: 14.5 µM (inactive)
COC(=O)/C(=N\NC(N)=O)C(C(=O)C=C(C)C)C(=O)C(=O)Nc1ccc(Cl)c(Cl)c1 (centres undefined) :: > 100 µM (inactive)
CCCCCCCCCCCC[N+](CCCCCCCCCCCC)=C1SCCS1 :: 10.7 µM (inactive)

// next entry
Quick one: GI50 of CC(C)=CCC[C@@H](C)c1c2ncc[nH]c-2c(C)c(=O)c1O ?
18.6 µM (inactive)

----------
# Tested on: COLO 205
# test_description: NCI tumour cell line growth inhibition, 48 h
Active and inactive are the calls of the source. Rule as the data show it: active = GI50 up to about 1.1 µM and inactive = higher.
endpoint_label: GI50

Below, 5 molecules whose answers are already recorded.
COc1ccc(-c2nc(N)c3ncn(C4OC(CO)C(O)C4O)c3n2)cc1 (stereo not drawn) :: > 100 µM (inactive)
CC1=NN(c2cccc(Cl)c2)C2(C1)SCC(=O)N2c1nc2ccccc2s1 (stereo not drawn) :: 18.1 µM (inactive)
COC(=O)NN(C(=O)OC)c1c(-c2ccccc2)nc(SC)n1N :: > 100 µM (inactive)
Cc1cccc(Nc2cn(CCOc3ccccc3)c(=O)[nH]c2=O)c1 :: 18.8 µM (inactive)
Nc1nc2c(ncn2C2OC(CO)C(O)C2N)c(=O)[nH]1 (stereo not drawn) :: > 100 µM (inactive)

Lab request: please report GI50 under test system COLO 205 for C=C1C(=O)OC2C1CC(OC(C)=O)/C(C)=C/CCC1(C)OC21 (stereo not drawn)
> 100 µM (inactive)

Lab request: please report GI50 under test system COLO 205 for N#CC1CCN2N=C(c3ccccc3)SC12c1ccccc1 (stereo not drawn)
40.7 µM (inactive)

Lab request: please report GI50 under test system COLO 205 for O=C1NC(=S)N/C1=C\c1ccc(Cl)cc1
80.5 µM (inactive)

Lab request: please report GI50 under test system COLO 205 for Cc1cc2c(c(C(=O)O)c1C)-c1cccc(Cl)c1C2=O
> 100 µM (inactive)

Lab request: please report GI50 under test system COLO 205 for CCNC(=S)NNC(=O)CSc1nc2ccc(I)cc2c(=O)n1Cc1ccccc1
25.7 µM (inactive)

Lab request: please report GI50 under test system COLO 205 for Cn1c2ccccc2c2[nH]c3ccccc3c(=O)c21
> 100 µM (inactive)

Lab request: please report GI50 under test system COLO 205 for CCC(C)C(N)C(=O)N/N=C\c1c2c(nc3ccccc13)-c1cc3c(c(=O)n1C2)COC(=O)[C@]3(O)CC (stereo partly drawn)
2.95 µM (inactive)

Lab request: please report GI50 under test system COLO 205 for Cc1ccc(S(=O)(=O)c2ccc(NC(=O)SCCC(=O)O)cc2)cc1
> 100 µM (inactive)

----------
# System: SK-OV-3
# test_description: NCI tumour cell line growth inhibition, 48 h
Active and inactive are the calls of the source. Cut-off read from the data, not from the text of the source: active = GI50 up to about 1.1 µM and inactive = higher.
Measured GI50, listed per entry for reference.

COc1cc2c(cc1OC)C1c3ccccc3CCN1CCC2.[O-][Cl+3]([O-])([O-])O (stereo not given) :: > 100 µM (inactive)
CSc1nc2c(c(=O)n1C)N=C(c1ccc([N+](=O)[O-])cc1)CC(c1ccccc1)N2 (stereo not given) :: > 100 µM (inactive)
Cc1cc(NCCCCCCCNc2cc(C)nc3cc(N)ccc23)c2ccc(N)cc2n1 :: 40.6 µM (inactive)
C=C1C(=O)OC2C1CC(OC(C)=O)/C(C)=C/CCC1(C)OC21 (stereo not given) :: > 100 µM (inactive)

// next entry
Quick one: GI50 of Cn1cc(C[C@@H](N)C(=O)O)c2ccccc21 [INDOXIMOD] ?
> 100 µM (inactive)
